Data provenance is ChEMBL document CHEMBL1145529.

# targetUnderTest: 5-hydroxytryptamine receptor 1B (Homo sapiens, UniProt P28222)
# Sequence (P28222 whole entry): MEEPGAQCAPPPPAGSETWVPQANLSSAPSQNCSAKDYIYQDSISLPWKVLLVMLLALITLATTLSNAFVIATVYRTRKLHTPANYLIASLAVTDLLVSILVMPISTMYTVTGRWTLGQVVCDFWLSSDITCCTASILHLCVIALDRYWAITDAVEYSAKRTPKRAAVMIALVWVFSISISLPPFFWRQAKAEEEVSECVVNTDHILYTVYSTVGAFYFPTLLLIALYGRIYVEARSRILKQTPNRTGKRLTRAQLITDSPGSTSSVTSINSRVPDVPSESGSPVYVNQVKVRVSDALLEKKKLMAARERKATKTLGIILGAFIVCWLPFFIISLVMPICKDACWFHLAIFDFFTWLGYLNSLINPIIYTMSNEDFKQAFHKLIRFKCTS
# assayOverview: Displacement of [3H]GR125743 from 5HT1B receptor transfected in CHO cells
# Format: cell-based
pKi: −log10 of the molar value.
Assign class by pKi: not lower than 7 means 1 (yes); lower than 7 means 0 (no).

- molecule: "CCN1CCC(N(CC)c2cc(OC)cc3c(=O)cc(C(=O)Nc4ccc(N5CCOCC5)cc4)[nH]c23)C1 (configuration not stated)"
  labelClass: "0 (no)"
- molecule: "COc1cc(N(C)C2CCN(C)C2)c2[nH]c(C(=O)Nc3ccc(N4CCOCC4)cc3)cc(=O)c2c1 (configuration not stated)"
  labelClass: "0 (no)"
- molecule: "COc1cc(N(C)CCN(C)C)c2[nH]c(C(=O)Nc3ccc(N4CCOCC4)cc3)cc(=O)c2c1"
  labelClass: "0 (no)"
- molecule: "COc1cc(N2CCN(C)CC2)c2[nH]c(C(=O)Nc3ccc(N4CCOCC4)cc3)cc(=O)c2c1"
  labelClass: "1 (yes)"
- molecule: "COc1cc(N2CC[C@@H](N(C)C)C2)c2[nH]c(C(=O)Nc3ccc(N4CCOCC4)cc3)cc(=O)c2c1"
  labelClass: "1 (yes)"
- molecule: "COc1cc(N2CCN(C)CC2)c2nc(C(=O)Nc3ccc(N4CCOCC4)cc3)cc(N(C)C)c2c1"
  labelClass: "1 (yes)"
- molecule: "CN1CCN(c2cc(F)cc3c(=O)cc(C(=O)Nc4ccc(N5CCOCC5)cc4)[nH]c23)CC1"
  labelClass: "1 (yes)"
- molecule: "COc1cc(C(=O)Nc2ccc(N3CCOCC3)cc2)nc2c(N3CCN(C)CC3)cc(F)cc12"
  labelClass: "1 (yes)"
- molecule: "CNc1cc(C(=O)Nc2ccc(N3CCOCC3)cc2)nc2c(N3CCN(C)CC3)cc(OC)cc12"
  labelClass: "0 (no)"
- molecule: "COc1cc(N(C)CCCN(C)C)c2[nH]c(C(=O)Nc3ccc(N4CCOCC4)cc3)cc(=O)c2c1"
  labelClass: "0 (no)"
- molecule: "COc1cc(N2CC[C@H](N(C)C)C2)c2[nH]c(C(=O)Nc3ccc(N4CCOCC4)cc3)cc(=O)c2c1"
  labelClass: "0 (no)"
- molecule: "COc1cc(N2CCCN(C)CC2)c2[nH]c(C(=O)Nc3ccc(N4CCOCC4)cc3)cc(=O)c2c1"
  labelClass: "1 (yes)"
